Target: T1, human Factor XIIa-alpha (human, UniProt P00748 20-615)
T1 sequence: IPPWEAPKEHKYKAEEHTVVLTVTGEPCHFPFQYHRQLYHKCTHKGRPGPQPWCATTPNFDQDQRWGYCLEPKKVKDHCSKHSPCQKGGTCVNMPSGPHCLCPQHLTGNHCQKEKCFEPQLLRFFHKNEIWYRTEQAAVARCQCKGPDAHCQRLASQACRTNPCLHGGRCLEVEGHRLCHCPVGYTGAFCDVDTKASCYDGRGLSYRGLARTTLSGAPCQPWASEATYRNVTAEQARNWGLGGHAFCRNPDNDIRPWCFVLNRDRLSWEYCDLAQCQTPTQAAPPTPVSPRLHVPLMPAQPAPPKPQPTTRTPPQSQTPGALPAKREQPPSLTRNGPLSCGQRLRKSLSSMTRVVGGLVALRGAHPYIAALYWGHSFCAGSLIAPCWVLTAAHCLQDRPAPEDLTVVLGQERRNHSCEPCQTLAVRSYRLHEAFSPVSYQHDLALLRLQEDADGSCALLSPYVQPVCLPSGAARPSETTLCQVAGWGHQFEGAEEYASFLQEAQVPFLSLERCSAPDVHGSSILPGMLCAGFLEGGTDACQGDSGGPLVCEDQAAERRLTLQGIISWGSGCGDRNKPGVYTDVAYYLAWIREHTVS
Assay: cell-based or functional assay
measurement label: % Inhibition, ratio FXIIa-alpha:Antibody 1:2
# number then unit; no other words

Below are worked cases with known answers.
binder: monoclonal antibody 3F7 (fully human IgG4/lambda) (antibody, V domains shown, also called 3F7 mAb; MAb 3F7) VH: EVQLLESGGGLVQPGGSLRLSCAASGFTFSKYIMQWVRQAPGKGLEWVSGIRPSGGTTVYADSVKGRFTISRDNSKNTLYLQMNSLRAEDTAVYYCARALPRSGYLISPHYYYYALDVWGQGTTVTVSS VL: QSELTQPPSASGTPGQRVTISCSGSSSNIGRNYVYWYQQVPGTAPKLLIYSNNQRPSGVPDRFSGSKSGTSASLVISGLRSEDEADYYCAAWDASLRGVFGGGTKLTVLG
result value: 100%

binder: VR24 (antibody, V domains shown) VH: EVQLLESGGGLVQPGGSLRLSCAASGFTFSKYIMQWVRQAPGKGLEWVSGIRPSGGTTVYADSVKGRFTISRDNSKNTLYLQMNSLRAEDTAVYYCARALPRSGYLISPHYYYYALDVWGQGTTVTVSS VL: QSVLTQPPSASGTPGQRVTISCSGSSEMTVHHYVYWYQQLPGTAPKLLIYSNNQRPSGVPDRFSGSKSGTSASLAISGLRSEDEADYYCAAWDASLRGVFGGGTKLTVLG
result value: 100%

Let's switch to this binder now.
Looking up VR110 (antibody, V domains shown) VH: EVQLLESGGGLVQPGGSLRLSCAASGFTFSKYIMQWVRQAPGKGLEWVSGIDMPTKGTVYADSVKGRFTISRDNSKNTLYLQMNSLRAEDTAVYYCARALPRSGYLISPHYYYYALDVWGQGTTVTVSS VL: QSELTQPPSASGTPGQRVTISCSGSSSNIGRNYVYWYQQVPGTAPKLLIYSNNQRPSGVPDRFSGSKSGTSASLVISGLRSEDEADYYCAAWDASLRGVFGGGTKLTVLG , I see its % Inhibition, ratio FXIIa-alpha:Antibody 1:2 listed as 100%
